- assay details: Plasma concentration in Sprague-Dawley rat at 10 mg/kg, po after 1 hr
- Format: ADME, organism-based
- Parameters: dose 10 mg/kg, route oral
recorded endpoint: concentration at 1 h (ng/mL)
Please give a number only; it is taken to be in ng/mL.

[in] Consider the compound "CCNC(=O)c1ccc2nc(C)c3nnc(-c4cncc(OC)c4)n3c2c1" . State its measured concentration at 1 h.
[out] 467

* * *

- subject of test: 3',5'-cyclic-AMP phosphodiesterase 4A (Homo sapiens)
- Sequence (P27815 whole entry): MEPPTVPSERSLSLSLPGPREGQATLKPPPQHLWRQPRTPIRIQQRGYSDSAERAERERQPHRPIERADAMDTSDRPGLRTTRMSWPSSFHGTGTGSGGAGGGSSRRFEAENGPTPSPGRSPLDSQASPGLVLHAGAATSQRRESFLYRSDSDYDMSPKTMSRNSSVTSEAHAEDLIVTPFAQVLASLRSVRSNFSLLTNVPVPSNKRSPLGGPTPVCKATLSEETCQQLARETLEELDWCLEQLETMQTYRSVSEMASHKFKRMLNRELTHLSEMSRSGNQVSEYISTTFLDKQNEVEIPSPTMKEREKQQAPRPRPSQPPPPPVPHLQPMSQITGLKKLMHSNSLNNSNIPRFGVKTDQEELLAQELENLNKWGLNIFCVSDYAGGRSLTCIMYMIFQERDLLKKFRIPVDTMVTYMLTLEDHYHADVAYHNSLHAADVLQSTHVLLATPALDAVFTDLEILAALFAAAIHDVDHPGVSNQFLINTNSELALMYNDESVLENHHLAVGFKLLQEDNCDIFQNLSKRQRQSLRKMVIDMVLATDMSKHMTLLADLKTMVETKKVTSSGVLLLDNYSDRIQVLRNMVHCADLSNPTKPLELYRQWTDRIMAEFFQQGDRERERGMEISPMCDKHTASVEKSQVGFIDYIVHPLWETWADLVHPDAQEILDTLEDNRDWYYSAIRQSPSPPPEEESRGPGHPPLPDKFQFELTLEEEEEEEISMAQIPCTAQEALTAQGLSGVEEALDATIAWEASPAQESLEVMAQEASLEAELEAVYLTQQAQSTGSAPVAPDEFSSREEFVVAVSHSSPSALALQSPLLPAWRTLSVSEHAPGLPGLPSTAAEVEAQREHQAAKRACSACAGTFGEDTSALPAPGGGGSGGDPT
- assay details: Inhibition of human recombinant PDE4A expressed in Sf9 cells by scintillation proximity assay
recorded endpoint: IC50

[in] Supply reported IC50 belonging to this compound: "Cc1nc2ccc(CN3CCOCC3)cc2n2c(-c3ccccc3Cl)nnc12"
[out] > 10 µM

* * *

- assay details: Plasma concentration in Wistar rat at 10 mg/kg, po after 1 hr
- Format: ADME, organism-based
- Design: dose 10 mg/kg, route oral
recorded endpoint: concentration at 1 h (ng/mL)
Only the number, expressed in ng/mL, is required.

[in] Please supply the value of reported concentration at 1 h for the item "CCNC(=O)c1ccc2nc(C)c3nnc(-c4ccccc4Cl)n3c2c1"
[out] 1880

* * *

- assay details: Ratio of drug level brain to plasma in Wistar rat at 10 mg/kg, po after 1 hr
- Assay type: ADME, organism-based
- Parameters: dose 10 mg/kg, route oral
- settings: read-out: BPR
recorded endpoint: Kp at 1 h
Could you keep your reply to the number by itself?

[in] Input "CCNC(=O)c1ccc2nc(C)c3nnc(-c4ccccc4Cl)n3c2c1" , output reported Kp at 1 h.
[out] 0.11

* * *

- subject of test: High affinity 3',5'-cyclic-AMP phosphodiesterase 7A (Homo sapiens, UniProt Q13946)
- Sequence (Q13946 whole entry): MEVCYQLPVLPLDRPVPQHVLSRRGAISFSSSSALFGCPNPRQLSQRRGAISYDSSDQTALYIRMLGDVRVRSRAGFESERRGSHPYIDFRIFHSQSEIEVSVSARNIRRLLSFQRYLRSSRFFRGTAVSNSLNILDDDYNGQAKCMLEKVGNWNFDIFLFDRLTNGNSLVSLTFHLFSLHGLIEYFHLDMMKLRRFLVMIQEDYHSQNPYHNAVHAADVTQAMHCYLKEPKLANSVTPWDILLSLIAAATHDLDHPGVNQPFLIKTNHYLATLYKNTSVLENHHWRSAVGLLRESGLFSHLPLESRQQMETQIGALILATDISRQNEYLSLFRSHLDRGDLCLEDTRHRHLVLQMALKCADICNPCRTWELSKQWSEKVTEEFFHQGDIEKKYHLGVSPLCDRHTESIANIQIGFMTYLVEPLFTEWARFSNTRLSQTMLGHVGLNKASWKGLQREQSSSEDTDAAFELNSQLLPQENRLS
- assay details: Inhibition of human recombinant PDE7A expressed in Sf9 cells by scintillation proximity assay
recorded endpoint: IC50 (nM)
# number only, unit nM dropped from output

[in] // fetch IC50 for "Cc1nc2ccc(CN3CCOCC3)cc2n2c(-c3ccccc3Cl)nnc12" ; system: High affinity 3',5'-cyclic-AMP phosphodiesterase 7A (Homo sapiens, UniProt Q13946)
[out] 1910

* * *

Catalogue of concentration at 1 h values
- assay details: Plasma concentration in Wistar rat at 10 mg/kg, sc after 1 hr
- Format: ADME, organism-based
- Set-up: dose 10 mg/kg, route subcutaneous
# output: bare number, implied unit µg/mL

The cases that follow already have their concentration at 1 h on record.
Cc1nc2ccc(CN3CCCC(CO)C3)cc2n2c(-c3ccccc3Cl)nnc12 (stereo not drawn)
0.569
Cc1nc2ccc(C(=O)NCCN3CCCC3)cc2n2c(-c3ccccc3Cl)nnc12
1.07

// next entry
[in] For the molecule "Cc1nc2ccc(C(=O)NCCN3CCOCC3)cc2n2c(-c3ccccc3Cl)nnc12" , give its measured concentration at 1 h value.
[out] 2.54

* * *

- subject of test: cGMP-dependent 3',5'-cyclic phosphodiesterase (Homo sapiens)
- Sequence (O00408 whole entry): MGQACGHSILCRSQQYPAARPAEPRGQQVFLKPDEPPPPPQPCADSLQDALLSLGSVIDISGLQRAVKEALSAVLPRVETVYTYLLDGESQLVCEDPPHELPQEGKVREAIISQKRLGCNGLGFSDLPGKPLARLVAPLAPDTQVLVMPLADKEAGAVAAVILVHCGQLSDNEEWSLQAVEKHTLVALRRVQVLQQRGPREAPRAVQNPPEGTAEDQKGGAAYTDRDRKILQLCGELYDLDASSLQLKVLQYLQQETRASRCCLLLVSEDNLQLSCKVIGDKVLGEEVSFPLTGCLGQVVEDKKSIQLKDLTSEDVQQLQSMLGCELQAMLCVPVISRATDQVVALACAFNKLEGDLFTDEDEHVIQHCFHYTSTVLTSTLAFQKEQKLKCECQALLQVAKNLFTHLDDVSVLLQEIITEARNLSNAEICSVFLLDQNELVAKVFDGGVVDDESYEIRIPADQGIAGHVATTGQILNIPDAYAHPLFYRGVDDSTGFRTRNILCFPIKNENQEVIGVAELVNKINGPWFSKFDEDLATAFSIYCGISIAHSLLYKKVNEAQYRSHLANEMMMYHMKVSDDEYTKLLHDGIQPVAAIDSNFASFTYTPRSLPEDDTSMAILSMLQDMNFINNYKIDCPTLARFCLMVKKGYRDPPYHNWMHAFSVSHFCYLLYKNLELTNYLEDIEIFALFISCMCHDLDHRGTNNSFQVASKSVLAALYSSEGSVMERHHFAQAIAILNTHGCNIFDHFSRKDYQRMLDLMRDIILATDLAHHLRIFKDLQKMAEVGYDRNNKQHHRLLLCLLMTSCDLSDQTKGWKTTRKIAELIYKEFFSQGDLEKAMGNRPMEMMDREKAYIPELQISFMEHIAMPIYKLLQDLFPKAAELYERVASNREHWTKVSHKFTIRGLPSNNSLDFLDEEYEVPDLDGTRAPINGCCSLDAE
- assay details: Inhibition of human recombinant PDE2A expressed in Sf9 cells by scintillation proximity assay
Measured log10(IC50), listed per entry.
Response schema: value (number) is log10 of IC50 in units of nM.

Illustrative cases are given below, each with its answer.
Cc1nc2ccc(CN3CCC(O)CC3)cc2n2c(-c3ccccc3Cl)nnc12
0.99
Cc1nc2ccc(C(=O)NCCc3ccccc3)cc2n2c(-c3ccccc3Cl)nnc12
0.23
Cc1nc2ccc(C(=O)NCCN3CCCC3)cc2n2c(-c3ccccc3Cl)nnc12
0.34
Cc1nc2ccc(CN3CCN(C)CC3)cc2n2c(-c3ccccc3Cl)nnc12
0.85
CCNC(=O)c1ccc2nc(C)c3nnc(-c4cccnc4OC)n3c2c1
1.45
Cc1nc2ccc(C(=O)NCc3ccccc3)cc2n2c(-c3ccccc3Cl)nnc12
-0.42
CCOC(=O)c1ccc2nc(C)c3nnc(-c4ccccc4Cl)n3c2c1
0.64
CCNC(=O)c1ccc2nc(C)c3nnc(-c4ccccc4OC)n3c2c1
0.77
Cc1nc2ccc(C(=O)N(C)Cc3ccccc3)cc2n2c(-c3ccccc3Cl)nnc12
1.28
CCNC(=O)c1ccc2nc(C)c3nnc(-c4ccccn4)n3c2c1
2.42

[in] Please report log10(IC50) for the following compound: "Cc1nc2ccc(CN3CCOCC3)cc2n2c(-c3ccccc3Cl)nnc12"
[out] 0.45

[in] Return the recorded log10(IC50) value; entry: "CCNC(=O)c1ccc2nc(C)c3nnc(-c4ccccc4F)n3c2c1"
[out] 0.45
